assay: Cytotoxicity against human melanoma cells after 48 hrs by sulforhodamine B assay; type: functional; details: Melanoma cell
// returns Criterion not met unless TGI is strictly below 60 µM, in which case Criterion met

Answered cases to consult:
smiles_representation=N#Cc1cnn(C(=O)c2nn(-c3ccc(Cl)cc3)cc2O)c1N class_name="Criterion met"
smiles_representation=O=C(c1nn(-c2ccc(Cl)cc2)cc1O)n1nc(-c2ccco2)cc1C(F)(F)F class_name="Criterion not met"
smiles_representation=Cc1cc(C)n(C(=O)c2nn(-c3ccc(Cl)cc3)cc2O)n1 class_name="Criterion not met"

[Q] Take the molecule CC1=NN(C(=O)c2nn(-c3ccc(Cl)cc3)cc2O)C(=O)C1 and say whether its TGI is less than 60 µM.
[A] Criterion not met

[Q] Take the molecule Cc1c2c(nn1C(=O)c1nn(-c3ccc(Cl)cc3)cc1O)-c1ccccc1CC2 and say whether its TGI is less than 60 µM.
[A] Criterion met

[Q] Take the molecule O=C1CC(=O)N(C(=O)c2nn(-c3ccc(Cl)cc3)cc2O)N1 and say whether its TGI is less than 60 µM.
[A] Criterion met

* * *

test system: PC-3; assay: Growth inhibition of human PC3 cells after 48 hrs by sulforhodamine B assay; assay type: functional; details: PC-3, 48 h
Below, each entry is listed alongside its reported GI50.
The reply should contain only the number, in µM.

Answered cases to consult:
smiles_representation=N#Cc1cnn(C(=O)c2nn(-c3ccc(Cl)cc3)cc2O)c1N scale_unit=µM endpoint_result=0.33
smiles_representation=Cc1c2c(nn1C(=O)c1nn(-c3ccc(Cl)cc3)cc1O)-c1ccccc1CC2 scale_unit=µM endpoint_result=0.037
smiles_representation=O=C1CC(=O)N(C(=O)c2nn(-c3ccc(Cl)cc3)cc2O)N1 scale_unit=µM endpoint_result=0.36
smiles_representation=Cc1cc(C)n(C(=O)c2nn(-c3ccc(Cl)cc3)cc2O)n1 scale_unit=µM endpoint_result=7.05

Attention now turns to another entry.
GI50 of O=C(c1nn(-c2ccc(Cl)cc2)cc1O)n1nc(-c2ccco2)cc1C(F)(F)F , assay on PC-3, is 26.3

* * *

system: MDA-MB-468; assay: Growth inhibition of human MDA-MB-468 cells after 48 hrs by sulforhodamine B assay; format: functional; conditions: MDA-MB-468, 48 h
// returns not fulfilled unless GI50 is strictly below 5000 nM, in which case fulfilled

smiles_representation=Cc1c2c(nn1C(=O)c1nn(-c3ccc(Cl)cc3)cc1O)-c1ccccc1CC2 class_name=fulfilled
smiles_representation=Cc1cc(C)n(C(=O)c2nn(-c3ccc(Cl)cc3)cc2O)n1 class_name="not fulfilled"
smiles_representation=O=C(c1nn(-c2ccc(Cl)cc2)cc1O)n1nc(-c2ccco2)cc1C(F)(F)F class_name=fulfilled

[Q] Take the compound O=C1CC(=O)N(C(=O)c2nn(-c3ccc(Cl)cc3)cc2O)N1 and say whether its GI50 is less than 5000 nM.
[A] fulfilled

[Q] Take the compound CC1=NN(C(=O)c2nn(-c3ccc(Cl)cc3)cc2O)C(=O)C1 and say whether its GI50 is less than 5000 nM.
[A] fulfilled

[Q] Take the compound N#Cc1cnn(C(=O)c2nn(-c3ccc(Cl)cc3)cc2O)c1N and say whether its GI50 is less than 5000 nM.
[A] fulfilled

* * *

test system: BT-549; test: Growth inhibition of human BT549 cells after 48 hrs by sulforhodamine B assay; assay type: functional; conditions: BT-549, 48 h
// returns FALSE unless GI50 is strictly below 600 nM, in which case TRUE

Answered cases to consult:
smiles_representation=Cc1cc(C)n(C(=O)c2nn(-c3ccc(Cl)cc3)cc2O)n1 class_name=FALSE
smiles_representation=CC1=NN(C(=O)c2nn(-c3ccc(Cl)cc3)cc2O)C(=O)C1 class_name=FALSE
smiles_representation=O=C1CC(=O)N(C(=O)c2nn(-c3ccc(Cl)cc3)cc2O)N1 class_name=TRUE
smiles_representation=O=C(c1nn(-c2ccc(Cl)cc2)cc1O)n1nc(-c2ccco2)cc1C(F)(F)F class_name=FALSE
smiles_representation=Cc1c2c(nn1C(=O)c1nn(-c3ccc(Cl)cc3)cc1O)-c1ccccc1CC2 class_name=TRUE

[Q] Take the compound N#Cc1cnn(C(=O)c2nn(-c3ccc(Cl)cc3)cc2O)c1N and say whether its GI50 is less than 600 nM.
[A] TRUE

* * *

system: NCI-H226; experiment: Growth inhibition of human NCI-H226 cells after 48 hrs by sulforhodamine B assay; type: functional; conditions: NCI-H226, 48 h
Below, each entry is listed alongside its reported log10(GI50).
Base-10 log of GI50, unit nM.

Answered cases to consult:
smiles_representation=Cc1c2c(nn1C(=O)c1nn(-c3ccc(Cl)cc3)cc1O)-c1ccccc1CC2 measurement_kind=log10(GI50) endpoint_result=1.65
smiles_representation=CC1=NN(C(=O)c2nn(-c3ccc(Cl)cc3)cc2O)C(=O)C1 measurement_kind=log10(GI50) endpoint_result=3.15
smiles_representation=N#Cc1cnn(C(=O)c2nn(-c3ccc(Cl)cc3)cc2O)c1N measurement_kind=log10(GI50) endpoint_result=2.57

The compound listed as O=C1CC(=O)N(C(=O)c2nn(-c3ccc(Cl)cc3)cc2O)N1 has a reported log10(GI50) of 2.86

The compound listed as O=C(c1nn(-c2ccc(Cl)cc2)cc1O)n1nc(-c2ccco2)cc1C(F)(F)F has a reported log10(GI50) of 3.43

The compound listed as Cc1cc(C)n(C(=O)c2nn(-c3ccc(Cl)cc3)cc2O)n1 has a reported log10(GI50) of 3.67

* * *

Below, each entry is listed alongside its reported GI50.
test system: M14; test: Growth inhibition of human M14 cells after 48 hrs by sulforhodamine B assay; format: functional; details: M14, 48 h
The reply should contain only the number, in nM.

smiles_representation=CC1=NN(C(=O)c2nn(-c3ccc(Cl)cc3)cc2O)C(=O)C1 scale_unit=nM endpoint_result=1780
smiles_representation=O=C1CC(=O)N(C(=O)c2nn(-c3ccc(Cl)cc3)cc2O)N1 scale_unit=nM endpoint_result=710
smiles_representation=Cc1cc(C)n(C(=O)c2nn(-c3ccc(Cl)cc3)cc2O)n1 scale_unit=nM endpoint_result=4690

The molecule listed as Cc1c2c(nn1C(=O)c1nn(-c3ccc(Cl)cc3)cc1O)-c1ccccc1CC2 has a reported GI50 of 96

The molecule listed as N#Cc1cnn(C(=O)c2nn(-c3ccc(Cl)cc3)cc2O)c1N has a reported GI50 of 480

The molecule listed as O=C(c1nn(-c2ccc(Cl)cc2)cc1O)n1nc(-c2ccco2)cc1C(F)(F)F has a reported GI50 of 4280

* * *

system: EKVX; test: Growth inhibition of human EKVX cells after 48 hrs by sulforhodamine B assay; format: functional
Below, each entry is listed alongside its reported GI50.
The reply should contain only the number, in nM.

Answered cases to consult:
smiles_representation=Cc1c2c(nn1C(=O)c1nn(-c3ccc(Cl)cc3)cc1O)-c1ccccc1CC2 scale_unit=nM endpoint_result=71
smiles_representation=O=C(c1nn(-c2ccc(Cl)cc2)cc1O)n1nc(-c2ccco2)cc1C(F)(F)F scale_unit=nM endpoint_result=1990
smiles_representation=CC1=NN(C(=O)c2nn(-c3ccc(Cl)cc3)cc2O)C(=O)C1 scale_unit=nM endpoint_result=2210
smiles_representation=N#Cc1cnn(C(=O)c2nn(-c3ccc(Cl)cc3)cc2O)c1N scale_unit=nM endpoint_result=380
smiles_representation=Cc1cc(C)n(C(=O)c2nn(-c3ccc(Cl)cc3)cc2O)n1 scale_unit=nM endpoint_result=4870

Attention now turns to another entry.
The molecule listed as O=C1CC(=O)N(C(=O)c2nn(-c3ccc(Cl)cc3)cc2O)N1 has a reported GI50 of 850

* * *

tested on: CCRF-CEM; assay: Growth inhibition of human CCRF-CEM cells after 48 hrs by sulforhodamine B assay; format: functional
Measurement kind: log10(GI50) (log10 of the value in nM)
Base-10 log of GI50, unit nM.

Answered cases to consult:
smiles_representation=O=C(c1nn(-c2ccc(Cl)cc2)cc1O)n1nc(-c2ccco2)cc1C(F)(F)F endpoint_result=2.84
smiles_representation=N#Cc1cnn(C(=O)c2nn(-c3ccc(Cl)cc3)cc2O)c1N endpoint_result=2.45
smiles_representation=Cc1cc(C)n(C(=O)c2nn(-c3ccc(Cl)cc3)cc2O)n1 endpoint_result=3.56
smiles_representation=O=C1CC(=O)N(C(=O)c2nn(-c3ccc(Cl)cc3)cc2O)N1 endpoint_result=2.62
smiles_representation=CC1=NN(C(=O)c2nn(-c3ccc(Cl)cc3)cc2O)C(=O)C1 endpoint_result=2.62

The compound listed as Cc1c2c(nn1C(=O)c1nn(-c3ccc(Cl)cc3)cc1O)-c1ccccc1CC2 has a reported log10(GI50) of 1.76

* * *

test system: UACC-257; test: Growth inhibition of human UACC257 cells after 48 hrs by sulforhodamine B assay; assay type: functional; conditions: UACC-257, 48 h
Measurement kind: GI50 (µM)
The reply should contain only the number, in µM.

smiles_representation=CC1=NN(C(=O)c2nn(-c3ccc(Cl)cc3)cc2O)C(=O)C1 scale_unit=µM endpoint_result=1.06

The compound listed as Cc1cc(C)n(C(=O)c2nn(-c3ccc(Cl)cc3)cc2O)n1 has a reported GI50 of 16.6

The compound listed as N#Cc1cnn(C(=O)c2nn(-c3ccc(Cl)cc3)cc2O)c1N has a reported GI50 of 0.56

The compound listed as Cc1c2c(nn1C(=O)c1nn(-c3ccc(Cl)cc3)cc1O)-c1ccccc1CC2 has a reported GI50 of 0.21

The compound listed as O=C1CC(=O)N(C(=O)c2nn(-c3ccc(Cl)cc3)cc2O)N1 has a reported GI50 of 1.86

The compound listed as O=C(c1nn(-c2ccc(Cl)cc2)cc1O)n1nc(-c2ccco2)cc1C(F)(F)F has a reported GI50 of 2.67
